- TARGET_OR_TEST_SYSTEM: human LAP-TGFβ1 expressed on P3U1 cells (human, UniProt P01137 30-390)
- Sequence (P01137 30-390): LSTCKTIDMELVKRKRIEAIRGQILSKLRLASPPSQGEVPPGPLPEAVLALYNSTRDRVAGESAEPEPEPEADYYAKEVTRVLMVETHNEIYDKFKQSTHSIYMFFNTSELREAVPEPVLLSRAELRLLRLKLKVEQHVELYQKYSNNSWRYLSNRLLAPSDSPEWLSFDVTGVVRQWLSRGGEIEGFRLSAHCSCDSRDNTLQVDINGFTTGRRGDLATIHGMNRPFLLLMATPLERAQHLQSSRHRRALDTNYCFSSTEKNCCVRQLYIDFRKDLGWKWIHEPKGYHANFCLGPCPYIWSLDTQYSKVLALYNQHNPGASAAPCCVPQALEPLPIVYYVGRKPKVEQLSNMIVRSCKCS
- METHOD_NOTES: cell-based or functional assay
MEASURED_ENDPOINT: ELISA assay 2 EC50

{"columns": ["BINDER", "RESULT"],
 "data": [
  ["parental 20E6 humanized antibody (antibody, IgG1, V domains shown) VH: EVQLVQSGAEVKKPGASVKVSCKASGYTFTSYWMHWVRQAPGQGLEWMGRIDPQSGGIKYAQKFQGRATLTVDTSTSTAYMELSRLRSDDTAVYYCARWDYGGYFDVWGQGTLVTVSS VL: DIQMTQSPSSLSASVGDRVTITCRASQDITNYLNWYQQKPGKAVKLLIYYTSRLHSGVPSRFSGSGSGTDYTLTISSLQPEDFATYFCQQGDTLPWTFGQGTKLEIK", "8.9 µg/mL"],
  ["20BLM (antibody, human IgG1, kappa, L234A L235A, V domains shown) VH: EVQLVQSGAEVKKPGASVKVSCKASGYTFTSYDMHWVRQAPGQGLEWMGRIDPQSGGEKYAQKFQGRATLTVDTSTSTAYMELSRLRSDDTAVYYCARYDYGGYFDVWGQGTLVTVSS VL: DIQMTQSPSSLSASVGDRVTITCRASQDIYNYLNWYQQKPGKAVKLLIYYTSRLETGVPSRFSGSGSGTDYTLTISSLQPEDFATYFCQQGDTLPWTFGQGTKLEIKR", "0.008 µg/mL"],
  ["19BLM (antibody, human IgG1, kappa, L234A L235A, V domains shown, IgG1 L234A L235A D265S/kappa; also called 82BLH; 55BMD) VH: EVQLVQSGAEVKKPGASVKVSCKASGYTFTSYDMHWVRQAPGQGLEWMGRIDPQSGGIKYAQKFQGRATLTVDTSTSTAYMELSRLRSDDTAVYYCARYDHGGYFDVWGQGTLVTVSS VL: DIQMTQSPSSLSASVGDRVTITCRASQDIYNYLNWYQQKPGKAVKLLIYYTSYLETGVPSRFSGSGSGTDYTLTISSLQPEDFATYFCQQGDTLPWTFGQGTKLEIKR", "0.205 µg/mL"],
  ["06BLM (antibody, human IgG1, L234A L235A, V domains shown, IgG1 L234A L235A D265S/kappa; also called 69BLH; 42BMD) VH: EVQLVQSGAEVKKPGASVKVSCKASGYTFTSYDMHWVRQAPGQGLEWMGRIDPQSGGIRYAQKFQGRATLTVDTSTSTAYMELSRLRSDDTAVYYCARWDYGGQFDVWGQGTLVTVSS VL: DIQMTQSPSSLSASVGDRVTITCRASQDIYNYLNWYQQKPGKAVKLLIYYTSILETGVPSRFSGSGSGTDYTLTISSLQPEDFATYFCQQGDTLPWTFGQGTKLEIK", "0.137 µg/mL"],
  ["11BLM (antibody, human IgG1, kappa, L234A L235A, V domains shown, IgG1 L234A L235A D265S/kappa; also called 74BLH; 47BMD) VH: EVQLVQSGAEVKKPGASVKVSCKASGYTFTSYDMHWVRQAPGQGLEWMGRIDPQSGGIRYAQKFQGRATLTVDTSTSTAYMELSRLRSDDTAVYYCARWDYGGYFDVWGQGTLVTVSS VL: DIQMTQSPSSLSASVGDRVTITCRASQDIYNYLNWYQQKPGKAVKLLIYYTSVLETGVPSRFSGSGSGTDYTLTISSLQPEDFATYFCQQGDTLPWTFGQGTKLEIKR", "0.112 µg/mL"]
]}
